Taken from PubChem BioAssay (NCI).

Tested on: T-47D breast
assay summary: NCI tumour cell line growth inhibition, 48 h
Could you please classify the records by TGI using these ranges: bin A (below 10 µM), bin B (10 µM to below 40 µM), bin C (40 µM or more)

>>> discrete_label("C[C@H]1[C@H](C)N(Cc2ccccc2)P(=O)(C(O)/C=C/c2ccccc2)N1Cc1ccccc1 (stereo partly specified)")
"bin B"
>>> discrete_label("COc1cccc(OC(=O)c2ccccc2Nc2ccnc(C(F)(F)F)c2)c1")
"bin C"
>>> discrete_label("CCN(CC)CCOc1ccc(C(=C(C)c2ccc(Cl)cc2)c2ccc(OCCN(CC)CC)cc2)cc1")
"bin A"
>>> discrete_label("CC1=CC(=O)c2c(O)cccc2C1=O")
"bin A"
>>> discrete_label("Oc1ccccc1/C=N/Nc1nnc2c3ccccc3c3ccccc3c2n1")
"bin C"

Problem: Category of NC(=O)C(Nc1c(Cl)cccc1Cl)c1cc2cc(Br)ccc2nc1Cl (stereo unspecified) :
Result: bin C

Problem: Also "COc1cc2c(cc1OC)-c1ccc3cc4c(cc3c1N(CCN1CCCC1)C2)OCO4" ?
Result: bin A

Problem: Also Cc1ccc(NCC2CC/C(=C\c3ccc(Cl)cc3)C2=O)cc1 (stereo unspecified) ?
Result: bin C

Problem: Also "C[C@]12CC[C@H]3[C@@H](CCC4=CC(=O)CC[C@@H]43)[C@@H]1CC[C@@H]2OC(=O)N(CCCl)N=O" ?
Result: bin B

Problem: Also "COc1ccc2c(c1)CC[C@@H]1[C@@H]2CC[C@]2(C)C(=O)C3(CCCCC3)C[C@@H]12" ?
Result: bin C

* * *

Test system: MDA-MB-435
assay summary: NCI tumour cell line growth inhibition, 48 h
reported endpoint: TGI (µM)
Supply the numeric figure in µM, leaving out any unit text.

Look over these answered cases.
>>> test_result("C[C@]12CC[C@H]3[C@@H](CCC4=CC(=O)CC[C@@H]43)[C@@H]1CC[C@@H]2OC(=O)N(CCCl)N=O")
32.5
>>> test_result("NC(=O)C(Nc1c(Cl)cccc1Cl)c1cc2cc(Br)ccc2nc1Cl (configuration not stated)")
49.9
>>> test_result("Nc1nc(/C=C\\c2ccc([N+](=O)[O-])o2)nc(N2CCN(c3ccccc3)CC2)n1")
26
>>> test_result("Nc1ncnc2c1ccn2C1OC2COP(=O)(O)OC2C1O (configuration not stated)")
2.31
>>> test_result("COc1cc2nc(Cl)nc(Nc3cccc(C(=O)/C=C/c4ccccc4)c3)c2cc1OC")
28.9
>>> test_result("NC(=O)[C@H]1CCN(c2ncnc(N)c2F)C[C@@H]1N1CCC[C@@H](Nc2cc(Cl)cc(C(F)(F)F)c2)C1=O")
39.5
>>> test_result("COC(=O)N1C[C@@]2(C=CC3(CC2)OCCO3)c2ccccc21")
74.5
>>> test_result("CC(C)c1ccccc1SC1CC(=O)CC(Sc2ccccc2C(C)C)C12O[C@H](c1ccccc1)[C@@H](c1ccccc1)O2 (some centres not stated)")
55.2

Problem: Recorded TGI for "COc1ccc(-c2ccc(-c3ccc(C(=N)N)nc3)s2)cc1" , please?
Result: 3.11

Problem: Also "CCc1c(C)[nH]c(/C=C2\N=C(c3ccc[nH]3)C=C2OC)c1C" ?
Result: 1.42

* * *

Test system: IGROV1 ovarian
assay summary: NCI tumour cell line growth inhibition, 48 h
Measured TGI of individual entries

Look over these answered cases.
>>> test_result("CCOC(=O)CCC(NC(=O)Cc1ccc(Nc2nc3ccccc3nc2-c2ccccc2)cc1)C(=O)OCC (centres undefined)")
"> 100 µM"
>>> test_result("CC(=O)OC1c2ccccc2CC2(OC(C)=O)c3ccccc3C12 (centres undefined)")
"> 100 µM"
>>> test_result("N#CC1(C#N)C2CCCCC23OC(=N)C1(C#N)C(c1ccco1)O3 (centres undefined)")
"40.3 µM"

Problem: Lab note: need TGI for "Cn1nc(Cc2ccc(Cl)cc2)n(N)c1=O" on IGROV1 ovarian, anyone have it?
Result: > 100 µM

Problem: Also "O=C1C(Cl)=C(N/N=c2/[nH][nH]/c(=N/NC3=C(Cl)C(=O)c4ccccc4C3=O)c3ccccc23)C(=O)c2ccccc21" ?
Result: 48.5 µM

* * *

Test system: EKVX NSCLC
assay summary: NCI tumour cell line growth inhibition, 48 h
Measured TGI of individual entries
Supply the numeric figure in µM, leaving out any unit text.

Look over these answered cases.
>>> test_result("O=C(CCN1CCCC1)Nc1ccc2c(NCc3ccc(F)cc3)c3ccccc3nc2c1")
2.3
>>> test_result("C=C1C(=O)O[C@@H]2C1CC(=O)C(C)CC/C=C(\\C)CCC[C@H](C)[C@H]2OC(C)=O (stereo not given in full)")
31.5
>>> test_result("C[C@@]12C=CC3C/C(=N\\C(N)=S)C=C(CCCC4OCCO4)[C@]3(CC1)C2 (stereo not given in full)")
40.6

Proceed to the following item.
Problem: Recorded TGI for CC12CCC=CC1CCC1C2CCC2(C)C(c3ccc(=O)oc3)CCC12O (stereo not given) , please?
Result: 0.193

* * *

Test system: SN12C renal
assay summary: NCI tumour cell line growth inhibition, 48 h; in the data active = GI50 below about 0.43 µM; inactive = the rest
Result category, one only: active, inactive

>>> discrete_label("CC1(C)CCC2(C(=O)OC3OC(CO)C(O)C(O)C3O)CC[C@]3(C)C(=CCC4C5(C)CC[C@H](OC6OC(C(=O)O)C(O)C(O)C6O)C(C)(C)C5CCC43C)C2C1 (some centres undefined)")
"inactive"
>>> discrete_label("c1ccc2nc(Cn3c[n+](Cc4ccc5ccccc5n4)c4ccccc43)ccc2c1")
"inactive"
>>> discrete_label("COc1ccc2c(c1)CC[C@@H]1[C@@H]2CC[C@]2(C)C(=O)C3(CCCCC3)C[C@@H]12")
"inactive"

--- query ---
Problem: Field: outcome | Entry: "CCN=C1C=CC(=C(c2ccc(N(C)C)cc2)c2ccc(N(C)C)cc2)c2ccccc21"
Result: active

* * *

System: RXF 393 renal
assay summary: NCI tumour cell line growth inhibition, 48 h
reported endpoint: TGI (µM)
Supply the numeric figure in µM, leaving out any unit text.

>>> test_result("N#CC(C#N)=CN1CCN(C(=O)c2ccco2)C1=S")
6.6
>>> test_result("CN(C)c1ccc(/C=C/C=C\\C2=CC(=C\\C=C/C=C3C=CC(=[N+](C)C)C=C3)/Sc3ccccc32)cc1")
32.7
>>> test_result("COc1cc2c(/C=C3/C(=O)Nc4ccc(Cl)cc43)c(Cl)n(Cc3ccccc3)c2cc1C")
5.18
>>> test_result("O=C(CCl)c1ccc([N+](=O)[O-])o1")
8.24

Proceed to the following item.
Problem: Recorded TGI for "COc1ccc(C(=O)/C=C/c2ccc(Cl)cc2)cc1S(=O)(=O)Nc1c(N)nc(SC)[nH]c1=O" , please?
Result: 3.26

* * *

Measured TGI of individual entries
System: OVCAR-5 ovarian
assay summary: NCI tumour cell line growth inhibition, 48 h

Look over these answered cases.
>>> test_result("O=P(O)(OCC(O)O)OCC(O)O")
"> 100 µM"
>>> test_result("Cc1nc2sc(CCl)nn2c(=O)c1Cl")
"28.7 µM"
>>> test_result("COc1ccc(/C=C/c2cc(OC)c(OC)c(OC)c2)cc1O")
"79.5 µM"
>>> test_result("CC1=CC(=O)c2c(O)cccc2C1=O")
"3.78 µM"

Problem: Recorded TGI for "CCOC(=O)c1ccc(C(=O)OCC)n1-c1cc2cc(c1)CSCc1cc(cc(-n3c(C(=O)OCC)ccc3C(=O)OCC)c1)CSC2" , please?
Result: > 10 µM

Problem: Also "c1ccc2[nH]c(-c3ccc(N4CCN(c5ccc(-c6nc7ccccc7[nH]6)cc5)CC4)cc3)nc2c1" ?
Result: > 100 µM

Problem: Also COC12C=CC(CC1)c1c(O)ccc(O)c12 (stereo not drawn) ?
Result: > 100 µM

* * *

Tested on: OVCAR-3 ovarian
assay summary: NCI tumour cell line growth inhibition, 48 h
reported endpoint: TGI (µM)
Supply the numeric figure in µM, leaving out any unit text.

Look over these answered cases.
>>> test_result("COC(=O)[C@H](Cc1ccccc1)NC(=O)NCCN(CCNC(=O)N[C@@H](Cc1ccccc1)C(=O)OC)C(=O)N[C@@H](Cc1ccccc1)C(=O)OC")
39.7
>>> test_result("c1ccc(Nc2nnc(CSc3nc(-c4ccccc4)c(-c4ccccc4)[nH]3)s2)cc1")
26.7

Proceed to the following item.
Problem: Recorded TGI for COc1cc2cc(C(=O)N3CC(CCl)c4c3cc(NC(=O)C(C)(C)c3ccccc3[N+](=O)[O-])c3ccccc43)[nH]c2c(OC)c1OC (centres undefined) , please?
Result: 222

* * *

Test system: K-562 leukemia
assay summary: NCI tumour cell line growth inhibition, 48 h
Measured TGI of individual entries

Look over these answered cases.
>>> test_result("CS(=O)(=O)CC1=Nc2nnc(CCCCCCCc3nnc4n3C(=O)C(CS(C)(=O)=O)=N4)n2C1=O")
"> 100 µM"
>>> test_result("CCCCCCn1c(SCC)c2ccccc2c1-c1nc(F)nc(F)n1")
"> 100 µM"
>>> test_result("COc1ccc2c(c1)CC[C@@H]1[C@@H]2CC[C@]2(C)C(=O)C3(CCCCC3)C[C@@H]12")
"> 100 µM"

Problem: Recorded TGI for "CCOC(=O)/C(O)=C(/C=N\C(=S)Nc1ccccc1Cl)C(=O)OCC" , please?
Result: > 100 µM

Problem: Also "CCc1ccc(NC(=O)Nc2c[nH]c3ccccc23)cc1" ?
Result: > 100 µM

Problem: Also "CCOC(=O)c1nc2ccc(C(F)(F)F)cc2nc1NCc1ccc(Cl)c(Cl)c1" ?
Result: > 100 µM

Problem: Also C=C1C(=O)OC2CC3(C)C=CC(=O)C(=C)C3CC12 (configuration not stated) ?
Result: > 100 µM

Problem: Also NCC1(N2CCOCC2)C2CCCC21CO (configuration not stated) ?
Result: > 100 µM

Problem: Also "CN(C)c1ccc(-c2c(C#N)c(N)[nH]c(=S)c2C#N)cc1" ?
Result: > 100 µM

Problem: Also "CN1CCc2c1nc(-c1ccccc1)c1c2N(C)CC1" ?
Result: > 100 µM

Problem: Also "C[C@]12CC[C@H]3[C@@H](CCC4=CC(=O)CC[C@@H]43)[C@@H]1CC[C@@H]2OC(=O)N(CCCl)N=O" ?
Result: 56 µM

Problem: Also "O=c1c2cc(S(=O)(=O)Nc3ccccc3Cl)ccc2ncn1NS(=O)(=O)c1ccc(Br)cc1" ?
Result: > 37.5 µM

Problem: Also "CCOC(=O)/C(C)=C\[C@@]1(C)O[C@@H](C)[C@@](C)(OC(C)=O)[C@@H]1OC(C)=O" ?
Result: > 100 µM

Problem: Also "CCc1c(C)[nH]c(/C=C2\N=C(c3ccc[nH]3)C=C2OC)c1C" ?
Result: 8.97 µM

Problem: Also "COc1cc(/C=C\c2ccccn2)cc(OC)c1OC" ?
Result: > 100 µM

Problem: Also "CSC1=N[C@H](c2ccccc2)CS1" ?
Result: > 100 µM

Problem: Also "COC(=O)CCC(=O)N1Cc2cc(C)ccc2N(C(=O)CCC(=O)OC)Cc2cc(C)ccc21" ?
Result: > 100 µM

Problem: Also "Clc1cccc(Cl)c1C=NC12CC3CC(CC(C3)C1)C2" ?
Result: > 10 µM

Problem: Also "O=C1c2cc3c(cc2CC12Cc1cc4c(cc1C2=O)CCCC4)CCCC3" ?
Result: > 100 µM

Problem: Also COc1cc(S(=O)(=O)Nc2ccc(-c3csc(N4C(=O)CSC4c4cccs4)n3)cc2)ccc1Cl (configuration not stated) ?
Result: 95.6 µM
